B1: Hairpin Ribozyme (parent)
chain: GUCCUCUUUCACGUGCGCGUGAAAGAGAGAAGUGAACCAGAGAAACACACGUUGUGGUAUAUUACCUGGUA

# Variants of: B1
# testDescription: self-cleavage, relative activity (ratio to wild type); higher = more cleavage; co-transcriptional
Short version: self-cleavage at least 0.2 is T, less is F.

Reference set (3 entries):
residueChange	assignedLabel
U8G U20G	T
U52A U70C	T
C37A U53G	T

Input line: Given U9G A24C , state whether its self-cleavage is at least 0.2.
Output line: T

Input line: Given U20C A45U , state whether its self-cleavage is at least 0.2.
Output line: F

Input line: Given A31C C66G , state whether its self-cleavage is at least 0.2.
Output line: F

FYI, the data here is from the RNAGym collection of RNA variant scans (doi:10.7554/elife.80360).
